Where these numbers come from: the supplement of paper PMC10567573

B1: TFE3 (parent)
chain: ELPNIKREISETEAKALLKERQKK

Variants of: B1
experimental protocol: protein stability index of a GFP-peptide fusion (GPS, HEK-293T) (PSI 1-6); higher = more stable;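 note: lentivirally expressed fusions sorted by FACS into six bins by GFP to DsRed ratio, PSI derived from sequencing read proportions per bin multiplied by bin number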
recorded conditions: c terminus: a fixed tail appended
Let's look at some variants and their measured protein stability index.
Returns: the value as a bare number; no unit string appended.

* P3R | 3.75

## Task Request the reported protein stability index associated with L17I
## Result 2.98

## Task Which protein stability index is listed for I9A ?
## Result 4.71

## Task Could you tell me which protein stability index is on file for S10P ?
## Result 4.98

## Task Give its protein stability index value. Item: K19C
## Result 2.07

## Task Using the record for I9F , report its protein stability index.
## Result 4.51

## Task Look up protein stability index: K24C
## Result 2.71

## Task Query: protein stability index; subject: Q22F
## Result 2.34

## Task # input variant: S10W ; wanted: its protein stability index
## Result 2.9

## Task For the variant shown here, L17A , give the reported protein stability index.
## Result 2.74
